Measured melting point, listed per entry.

Sample records with melting point:
COMPOUND	melting point
O=c1c2ccc(Cl)cc2sn1CCCCl	89 °C
CCNc1nc(Nc2ccccc2)ncc1C=CC(=O)OCC	125 to 126 °C
O=C1C(Cc2ccncc2)c2ccccc2N1N1CCOCC1 (centres undefined)	108 to 110 °C
O=C(O)c1cc2c(F)ccc(Br)c2s1	249 to 252 °C
CN1CC2c3cccn3Cc3ccccc3N2C(=O)C1=O (centres undefined)	178 to 179 °C
CC1(C)CC(S(=O)C(F)c2c(F)cccc2F)=NO1 (centres undefined)	87 °C

Looking up Fc1ccc(CSc2nnc(-c3ccc4c(c3)CCO4)o2)cc1F , I see its melting point listed as 138 to 139 °C

melting point reading for CCCCc1oc2ccccc2c1C(=O)NCc1ccc2c(-c3ccc(C(C)(C)C)cc3)c(O)ccc2c1 : 195 to 197 °C

melting point measured on COc1cccc2c1C(=O)N(CC(=O)N1c3ccccc3N(Cc3ccccc3)C(=O)[C@H]3CCC[C@H]31)C2=O (relative stereo) = 247 to 248 °C

Query C=Cc1c(C(C)C)nc(C(C)C)c(CO)c1-c1ccc(F)cc1 yields melting point of 119 to 120 °C

----------
# melting point per record follows

For orientation, consider the following solved cases.
COMPOUND	melting point
COc1cc(C(=O)N2CC3CC(C2)CN(C(C)C)C3)cc(OC)c1OC	67.5 to 69.5 °C
COc1cc2c(cc1OC)C(=O)C(c1ccc3c(c1)OCO3)CC2 (stereo unspecified)	168 to 170 °C

Pending compound:
Documented melting point of N#CCNC(=O)Cc1ccccc1 : 87 to 91 °C

----------
MEASURED_PROPERTY: melting point

Field: example entries. Status: answers known.
COMPOUND	RESULT
FC(F)(F)c1ccn(-c2cc(-c3ccc4c(c3)OCO4)nc3ccccc23)n1	98 to 100 °C
CCCC[C@@](C)(O)C(=O)O	67.8 to 67.9 °C
CCCCN(CCCC)C(=O)c1cc2ccccc2c(-c2ccccc2)n1	62 °C

Kindly note the recorded melting point for O=CNc1nc(S(=O)(=O)Cl)n[nH]1 , which is 194 to 196 °C

Value of measured melting point for the entry CC(C)Oc1cc(-n2nc(C(F)(F)F)[nH]c2=O)c(Cl)cc1Cl : 160 to 161 °C

The compound identified as CC1(C)CCC(C)(C)c2cc(C(C(=O)O)C(=O)Nc3ccc(C(=O)O)cc3)ccc21 (stereo not drawn) registered its melting point at 213 to 214 °C

// melting point value for CC(C)(C)c1ccc(N2C[C@@H](COc3ccc(C(=O)O)cc3)CC2=O)cc1 : 247 to 248 °C

Given item CCOc1ccccc1NC=C1C(=O)N(c2ccc(S(=O)(=O)N3CCCCC3)cc2)N=C1C , the value recorded as its melting point is 252 °C

# compound Nc1nc2[nH]c(CCCCc3ccc(C(=O)N[C@@H](CCC(=O)O)C(=O)O)s3)cc2c(=O)[nH]1 ; its melting point = 179 to 180 °C

So for O=C(CCCCC(=O)N1CCN(c2cnccn2)CC1)c1ccc(Cl)cc1 , the logged melting point turned out to be 138 to 140 °C

Recorded result, COc1cc2c3c(cccc3c1)C(=O)N(O)C2=O , melting point: 236 to 239 °C

So, CN1C(=O)C=C(c2ccc3c(c2)CCCC3)C1=O ? Its melting point was 104 to 107 °C

Entry Cc1nnc(N2C(=O)C(O)=C(C(=O)c3ccc(C(C)C)cc3)C2c2ccc(C(F)(F)F)cc2)s1 (stereo not drawn) — recorded melting point = 257 °C
